The values you see were collected from paper PMC12064818.

Some compounds, each annotated with its measured IC50.
target: FLuc-C-HiBiT (Photinus pyralis); construct: firefly luciferase with C-terminal HiBiT tag, E. coli expressed; assay: biochemical; conditions: enzyme activity, 10 uM ATP; read-out: IC50 or SDR50 (mM) / FLuc E

Answered cases to consult:
[[record]]
compound = "Cc1cc(C)n(CCC(=O)N2CCC(Cc3noc(C4CC4)n3)C2)n1 (stereo not drawn)"
value_measured = "> 0.03 mM"

[[record]]
compound = "CN1CC(=O)N(C2CCCC2)Cc2c1ncnc2N1CCOCC1"
value_measured = "> 0.03 mM"

[[record]]
compound = "O=C(CSc1nnc2ccccn12)Nc1cccc(-c2nc3ccccc3s2)c1"
value_measured = "> 0.03 mM"

[[record]]
compound = "O=C(c1ccc(F)cc1)N1CCn2c(nnc2C2CC2)C1"
value_measured = "> 0.03 mM"

[[record]]
compound = "O=C(COc1ccc(Cl)cc1)Nc1ccc(-c2nc3ccccc3s2)c(O)c1"
value_measured = "> 0.03 mM"


Which IC50 reading was recorded for the compound CCc1ccc(CNC(=O)C2CCCN(c3nn4cc(-c5ccc(F)cc5)nc4s3)C2)cc1 (stereo not drawn) ?
> 0.03 mM

Give its IC50 value. Item: "COc1ccc(C(=O)COC(=O)CCCC(=O)Nc2ccc(C(C)=O)cc2)cc1"
0.00989 mM

Consider the compound O=C(NC1CCCC1)N1c2ccccc2CC1c1noc(C2CCOCC2)n1 (stereo not drawn) and give its measured IC50.
0.0111 mM

What does the data say about its IC50? Entry: "NC(=O)c1cccc(-c2cc3c(cn2)CN(Cc2ccccc2)CCN3)c1"
0.0202 mM

###

target: FLuc-C-HiBiT (Photinus pyralis); construct: firefly luciferase with C-terminal HiBiT tag, E. coli expressed; assay: biochemical; conditions: enzyme activity, 10 uM ATP; read-out: IC50 or SDR50 (mM) / FLuc E
measurement type: IC50 (mM)

[[record]]
smiles_str = "O=C1Cc2c(-c3cccc4ccccc34)n[nH]c2CN1CCOc1ccccc1"
target_under_test = "FLuc-C-HiBiT (Photinus pyralis)"
measure_unit = "mM"
value_measured = 0.018

[[record]]
smiles_str = "CC(=O)Nc1cccc(-c2cccc(CCOc3cnc4c(ccn4CC(=O)O)c3)c2)c1"
target_under_test = "FLuc-C-HiBiT (Photinus pyralis)"
measure_unit = "mM"
value_measured = 0.0161


###

target: P. pyralis FLuc (Photinus pyralis, UniProt P08659); assay: FLuc enzymatic luminescence assay, P. pyralis FLuc; assay type: biochemical; conditions: FLuc enzymatic assay; Clade S follow-up
measurement type: Efficacy (%) FLuc E
State just the number; it will be interpreted in %.

Some molecules with known Efficacy (%) FLuc E results, for comparison:
[[record]]
molecule = "Cc1ccc(C2Cn3cnc(C(=O)N4CCC(C(=O)NC5CCCC5)CC4)c3CO2)cc1 (centres unmarked) [NCGC00449881-01]"
value_measured = -51.50

[[record]]
molecule = "Cc1ccc(C2Cn3cnc(C(=O)N4CCC(C(=O)NCc5ccco5)CC4)c3CO2)cc1 (centres unmarked) [NCGC00449893-01]"
value_measured = -75.71

[[record]]
molecule = "O=C(Nc1ccc(F)cc1)C1CCN(C(=O)c2ncn3c2COC(c2ccc(F)cc2)C3)CC1 (centres unmarked) [NCGC00449939-01]"
value_measured = -56.35

[[record]]
molecule = "CCc1ccc(CNC(=O)C2CCN(C(=O)c3ncn4c3COC(c3ccc(F)cc3)C4)CC2)cc1 (centres unmarked) [NCGC00449815-01]"
value_measured = -15.14


Consider now this further molecule.
Give the measured Efficacy (%) FLuc E of CC(C)CNC(=O)C1CCN(C(=O)c2ncn3c2COC(c2ccc(F)cc2)C3)CC1 (centres unmarked) [NCGC00449805-01] .
-24.33

###

target: FLuc-N-HiBiT (firefly luciferase) (Photinus pyralis, UniProt P08659, form not given/L550V); experiment: SDR assay, FLuc-N-HiBiT; details: substituted indoline (clade A'); + ATP
Sequence (P08659 2-550 L550V, form open): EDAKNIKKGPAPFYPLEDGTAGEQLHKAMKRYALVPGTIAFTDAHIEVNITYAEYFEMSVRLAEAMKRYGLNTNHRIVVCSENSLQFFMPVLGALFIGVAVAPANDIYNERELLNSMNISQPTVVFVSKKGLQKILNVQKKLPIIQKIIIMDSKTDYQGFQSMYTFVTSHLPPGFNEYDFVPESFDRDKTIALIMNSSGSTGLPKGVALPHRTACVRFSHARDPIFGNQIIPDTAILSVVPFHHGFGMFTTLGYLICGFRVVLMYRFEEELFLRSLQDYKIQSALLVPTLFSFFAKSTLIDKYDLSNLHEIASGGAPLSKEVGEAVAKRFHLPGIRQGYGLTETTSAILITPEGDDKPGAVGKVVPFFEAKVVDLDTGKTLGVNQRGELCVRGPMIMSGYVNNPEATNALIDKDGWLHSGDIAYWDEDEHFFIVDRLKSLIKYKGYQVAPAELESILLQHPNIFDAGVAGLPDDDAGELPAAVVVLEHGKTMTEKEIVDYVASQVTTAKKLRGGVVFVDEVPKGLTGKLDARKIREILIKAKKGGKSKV
measurement type: pSDR50 (clade A')

[[record]]
compound = "COc1ccc(NC(=O)c2cccc3c2CCN3C(=O)Nc2ccc(F)cc2)c(C)c1 [NCGC00430188-01]"
target_under_test = "FLuc-N-HiBiT (firefly luciferase) (Photinus pyralis, UniProt P08659, form not given/L550V)"
measurement_type = "pSDR50 (clade A')"
value_measured = 6.16

[[record]]
compound = "COc1ccc(NC(=O)N2CCc3c(C(=O)NCCN4CCCCCC4)cccc32)cc1 [NCGC00430136-01]"
target_under_test = "FLuc-N-HiBiT (firefly luciferase) (Photinus pyralis, UniProt P08659, form not given/L550V)"
measurement_type = "pSDR50 (clade A')"
value_measured = 6.10

[[record]]
compound = "COc1ccc(NC(=O)N2CCc3c(C(=O)NCc4ccncc4)cccc32)cc1 [NCGC00430180-01]"
target_under_test = "FLuc-N-HiBiT (firefly luciferase) (Photinus pyralis, UniProt P08659, form not given/L550V)"
measurement_type = "pSDR50 (clade A')"
value_measured = 6.06


###

target: FLuc-C-HiBiT (firefly luciferase) (Photinus pyralis, UniProt P08659, form not given/L550V); assay: SDR assay, FLuc-C-HiBiT; conditions: 10 nM FLuc-C-HiBiT; normalized activity; Log [Compound], M -5.44
Sequence (P08659 2-550 L550V, form open): as the sequence (P08659 2-550 L550V, form open) above
measurement type: SDR + 10 mM ATP
Form rule: numeric answer, no unit written next to it.

[[record]]
molecule = "COc1ccc(-c2nc(-c3ccc(C(=O)O)cc3)no2)cc1"
target_under_test = "FLuc-C-HiBiT (firefly luciferase) (Photinus pyralis, UniProt P08659, form not given/L550V)"
measurement_type = "SDR + 10 mM ATP"
value_measured = 77.9

[[record]]
molecule = "CC1CCCN(c2ncnc3c2cnn3-c2ccccc2)C1 (stereo not shown)"
target_under_test = "FLuc-C-HiBiT (firefly luciferase) (Photinus pyralis, UniProt P08659, form not given/L550V)"
measurement_type = "SDR + 10 mM ATP"
value_measured = 42.0

[[record]]
molecule = "O=C(O)c1cccc2c1CCN2C(=O)Nc1ccc(F)cc1"
target_under_test = "FLuc-C-HiBiT (firefly luciferase) (Photinus pyralis, UniProt P08659, form not given/L550V)"
measurement_type = "SDR + 10 mM ATP"
value_measured = 127.7


Switching to the query record.
Item under review: "Cc1ccc(-n2ncc3c(N4CCCCCC4)ncnc32)cc1" . Reported SDR + 10 mM ATP?
64.2

###

molecular target: FLuc-C-HiBiT (Photinus pyralis, UniProt P08659); construct: firefly luciferase with C-terminal HiBiT tag, E. coli expressed; test: biochemical; settings: enzyme activity, 10 uM ATP; read-out: IC50 or SDR50 (mM) / FLuc E
Sequence (P08659 whole entry, looked up): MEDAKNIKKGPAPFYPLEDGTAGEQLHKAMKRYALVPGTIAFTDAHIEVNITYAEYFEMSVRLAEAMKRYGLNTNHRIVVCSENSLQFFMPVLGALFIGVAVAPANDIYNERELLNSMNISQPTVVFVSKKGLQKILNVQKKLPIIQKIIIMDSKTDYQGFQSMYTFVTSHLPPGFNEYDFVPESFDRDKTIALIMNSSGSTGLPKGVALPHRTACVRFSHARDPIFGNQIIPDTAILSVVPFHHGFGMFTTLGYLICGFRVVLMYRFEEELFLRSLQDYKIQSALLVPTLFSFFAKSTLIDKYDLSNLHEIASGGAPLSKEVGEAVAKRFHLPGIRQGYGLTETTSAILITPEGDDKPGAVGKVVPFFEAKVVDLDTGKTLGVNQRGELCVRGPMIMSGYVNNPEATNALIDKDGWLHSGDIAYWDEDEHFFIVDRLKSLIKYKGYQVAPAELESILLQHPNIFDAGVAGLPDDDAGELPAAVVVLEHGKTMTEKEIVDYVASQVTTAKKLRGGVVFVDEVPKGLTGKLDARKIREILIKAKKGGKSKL
measurement type: IC50 (µM)

Reference set (3 entries):
[[record]]
compound = "C#CCn1c(/C=C/c2ccc(Cl)cc2)nc2ccccc21"
value_measured = 0.624

[[record]]
compound = "O=C(NC[C@H]1Cn2cc(-c3ccc4c(c3)OCCCO4)nc2CO1)c1ccc2c(c1)OCO2"
value_measured = 9.89

[[record]]
compound = "C[C@H](C(=O)NCCN1CCOCC1)C1CC[C@@]2(C)Cc3sc(CSc4ccccc4)nc3[C@@H](C)[C@@H]2[C@H]1O (stereo partly drawn)"
value_measured = 12.4


[A] Cc1cn2nc(C(=O)NCCc3ccccc3)cc2c(=O)[nH]1
[B] Cc1ccccc1CN1CC[C@H](c2nc3cc(F)ccc3[nH]2)C1
When A and B are compared, which has the higher number for IC50? Kindly state the label of the option you pick.
B
(B: 25.5 µM, A: 11.1 µM)

###

Biological target: FLuc-C-HiBiT (Photinus pyralis, UniProt P08659)
Construct: firefly luciferase with C-terminal HiBiT tag, E. coli expressed
Assay: biochemical
Settings: enzyme activity, 10 uM ATP; read-out: IC50 or SDR50 (mM) / FLuc E
Procedure: The enzyme activity of FLuc-N-HiBiT, FLuc-C-HiBiT, and FLuc-C-NLuc was measured similar to P. pyralis firefly luciferase (FLuc) as previously described. […] Compounds and controls were added to each plate as described in Supplementary Data 8 with a Hornet pintool system (Wako Automation). […] Luciferin was incubated with FLuc enzyme for 5 min before FLuc activity was then measured on a ViewLux CCD imager (PerkinElmer), with exposure times up to ten seconds with medium to high gain settings. […]
measurement type: IC50 (mM)

Reference set, count: 5
[[record]]
compound = "OC1CN(Cc2ccc(-c3cnc4c(OCc5ccccc5)nccn34)cc2)C1 [NCGC00414051-01]"
value_measured = 0.0202

[[record]]
compound = "Cc1nn(-c2ccc(C(C)C)cc2)c(C)c1[C@@H]1C=C[C@@H](NC(=O)NC(C)C)C1 [NCGC00399949-01]"
value_measured = 0.018

[[record]]
compound = "COc1ccc(NC(=O)N2CCc3c(C(=O)NCCN4CCCCCC4)cccc32)cc1 [NCGC00430136-01]"
value_measured = 0.000556

[[record]]
compound = "Cc1cc(-c2cc3c(cn2)CN(Cc2c[nH]cn2)CCN3)ccn1 [NCGC00411148-01]"
value_measured = 0.018

[[record]]
compound = "COc1ccc(-c2cc(=O)c3cc(OCC(=O)OC(C)C)ccc3o2)cc1 [NCGC00100608-01]"
value_measured = 0.00394


[A] Cc1cn2c(=O)cc(COC(=O)c3cccc(NC(=O)COc4ccccc4Cl)c3)nc2s1 [NCGC00130619-01]
[B] Cc1ncccc1C(=O)N1CCC(Oc2ccc(-c3noc(-c4ccccc4)n3)cc2)C1 (centres unmarked) [NCGC00440997-01]
Consider A and B . Which of these has its IC50 at a higher number? Answer by quoting the chosen item's label.
B

[a] CC(Cn1cccn1)Nc1ccc(-c2nc(-c3ccccc3F)no2)cn1 (centres unmarked) [NCGC00427483-01]
[b] CCOc1ccc(-c2cn3nc(CC(C)C)sc3n2)cc1 [NCGC00117462-01]
[c] CNC(=O)CCn1ncc2cc(OCc3ccccc3-c3cccc(NC(C)=O)c3)ccc21 [NCGC00418019-01]
[d] CCNC(=O)C1C(c2cccc(NC(=O)c3ccc(C)cc3)c2)OC(=O)N1Cc1ccc(F)cc1 (centres unmarked) [NCGC00473984-01]
Arrange the 4 compounds from largest to smallest IC50. // ordering of labels required in reply
a, b, c, d
(a: 0.00989 mM, b: 0.00495 mM, c: 0.00313 mM, d: 0.00176 mM)

[A] CCOc1ccc(-c2cc3c(=O)n(CCNC(=O)c4ccncc4)ccn3n2)cc1 [NCGC00456950-01]
[B] Cc1ccc(C(=O)NCCn2cccc2-c2nc(-c3ccc4c(c3)OCO4)no2)cn1 [NCGC00445612-01]
[C] OCC1CCCN(c2ncnc3c2cnn3-c2ccccc2)C1 (centres unmarked) [NCGC00624837-01]
Would you mind ranking these compounds by ascending IC50? Give the labels in the order requested.
C, A, B
(C: 0.000394 mM, A: 0.00351 mM, B: 0.0111 mM)

[I] Cn1c(=O)c2ccnn2c2ccc(C(=O)Nc3ccc4c(c3)OCCO4)cc21 [NCGC00470050-01]
[II] OC1CCN(c2ncnc3c2cnn3-c2ccccc2)CC1 [NCGC00626234-01]
[III] O=C(O)c1cccc(-c2noc(-c3cc([N+](=O)[O-])cc([N+](=O)[O-])c3)n2)c1 [NCGC00250195-01]
Sort low-to-high on IC50, please. # respond with the labels, arranged in the requested order
III, I, II
(III: 0.00313 mM, I: 0.00989 mM, II: 0.0157 mM)

[A] CCCC(=O)N1CCN(c2nc3ccc(F)cc3s2)CC1 [NCGC00137065-01]
[B] Cc1ccc(NC(=O)N2CCc3c(C(=O)NCCc4ccccn4)cccc32)cc1 [NCGC00430168-01]
Higher IC50: A or B ? Mark your selection by writing its label.
A
